Hi there, I'd appreciate the recorded growth inhibition for every entry that follows.
# ASSAY_PROTOCOL: NCI Yeast Anticancer Drug Screen. Data for the bub3 strain (AID 167)
# REPORTED_CONDITIONS: S. cerevisiae bub3 mutant strain, at 50.0 µM, hits give high values
This is part of a sample that, as a whole, favours compounds with a hit. Of some 79,000 tested, about 15% had one in any assay. Calls of active or inactive are those of the source. No stated cut-off is given here; in the data, active means growth inhibition above about 70%; inactive means the rest.

Query: Look up growth inhibition for this compound: `COC(=O)c1nc(NN)[nH]c(=O)c1CCCCCc1c(C(=O)OC)[nH]c(NN)cc1=O`
Reply: -18.1% (inactive)

Query: Then CCCCCC(=O)C(CCCC)C(=O)OCC (stereo not given) ?
Reply: -12% (inactive)

Query: Then `CCCCCCCCCCCCCCCCC1Cc2ccccc2C1` ?
Reply: -4.15% (inactive)

Query: Then O=C1OC(c2ccccc2Cl)Sc2ccccc21 (stereo not given) ?
Reply: 55.8% (inactive)

Query: Then `CNC(=S)N/N=C(C)\C=N/Nc1ccc(Br)cc1` ?
Reply: 21.2% (inactive)

Query: Then `O=COCCCc1ccccc1` ?
Reply: 3.15% (inactive)

Query: Then `Cc1[nH]n(C(N)=S)c(=O)c1N=Nc1c(Cl)cccc1Cl` ?
Reply: 11.9% (inactive)

Query: Then CCC1(C2C=COC=C2)NC(=O)NC1=O (stereo not given) ?
Reply: -4.75% (inactive)

Query: Then `Cc1ccc2c(c1)C=C/C(=C/c1cc[n+](C)c3ccccc13)N2C` ?
Reply: -5.8% (inactive)

Query: Then NC(CCCCn1nnc2c(=O)[nH]cnc21)C(=O)O (stereo not given) ?
Reply: 7.1% (inactive)

Query: Then `N#CC(C#N)=CN1CCNC1=S` ?
Reply: 17.6% (inactive)

Query: Then `O=C(O)c1cc(=O)[nH]c(=O)[nH]1` ?
Reply: -6.5% (inactive)

Query: Then `CS/C(=C\c1ccc2ccccc2[n+]1C)N1CCN(CCCO)CC1` ?
Reply: -7.4% (inactive)

Query: Then CC(=O)c1cc(CC2Cc3cc4c(cc3C2=O)CCC4)cc2c1CCC2 (stereo not given) ?
Reply: -6.45% (inactive)

Query: Then `CCN(CC)CCNC(=O)c1ccc(NCN2C(=O)NC(c3ccccc3)(c3ccccc3)C2=O)cc1` ?
Reply: 15.7% (inactive)

----------
# ASSAY_PROTOCOL: NCI Yeast Anticancer Drug Screen. Data for the mlh1 rad18 strain (AID 175)
# REPORTED_CONDITIONS: S. cerevisiae mlh1 rad18 strain growth inhibition; at 50.0 µM
About 79,000 compounds went through this panel and 15% of them were active in at least one assay; those are over-represented in the sample as a whole. Calls of active or inactive are those of the source. No stated cut-off is given here; in the data, active means growth inhibition above about 70%; inactive means the rest.
# output must be one of class 1 (active), class 0 (inactive)

Query: Record lookup: outcome of this test for `CC(=O)Nc1nc(C)c(CC/C=C/c2ccc([N+](=O)[O-])cc2)c(=O)[nH]1` ?
Reply: class 0

Query: Then `CCCCCCCOCC(=O)OC` ?
Reply: class 0

Query: Then COC(=O)C(S)(NC(C)=O)C(C)C (stereo not given) ?
Reply: class 0

Query: Then `OCCCc1ccccc1` ?
Reply: class 0

Query: Then `N#Cc1ccc(OC(=O)Nc2ccccc2C(F)(F)F)cc1` ?
Reply: class 0

Query: Then O=C(O)C(Cc1ccc(OS(=O)(=O)Cc2ccccc2)cc1)NS(=O)(=O)Cc1ccccc1 (stereo not given) ?
Reply: class 0

Query: Then `O=[N+]([O-])C1C=Nc2ccccc2N=C1` ?
Reply: class 0

Query: Then `Nc1ccc(N)c(C(=O)O)c1` ?
Reply: class 0

Query: Then `O=C(Nc1ccccc1Cl)c1ccc(Cl)cc1` ?
Reply: class 0

Query: Then `O=C(Cc1n[nH]c(=S)nc1CC(=O)c1ccccc1)c1ccccc1` ?
Reply: class 0

Query: Then `COC(=O)c1ccc(/C2=c3\cc/c([n-]3)=C(\c3ccc(C(=O)OC)cc3)c3ccc([n-]3)/C(c3ccc(C(=O)OC)cc3)=c3/cc/c([n-]3)=C(\c3ccc(C(=O)OC)cc3)c3ccc2[n-]3)cc1.[Mn]` ?
Reply: class 0

Query: Then `CCOC(=O)C1=C(C(=O)c2cccc3ccccc23)C(c2cccc([N+](=O)[O-])c2)C(C(=O)c2cccc3ccccc23)=C(C(=O)OCC)N1` ?
Reply: class 0

Query: Then COC(=O)C(CCCCNC(=O)OCc1ccccc1)NC(=O)c1ccc(N(C)C=O)cc1 (stereo not given) ?
Reply: class 0

Query: Then `Cc1ccc2[nH]c(=S)n(CCc3ccccc3)c(=O)c2c1` ?
Reply: class 0

Query: Then CCOC(=O)C1OC1(C)c1ccc(Cl)cc1 (stereo not given) ?
Reply: class 0

Query: Then `C/C=C/C(=O)OCCOc1ccccc1-c1ccccc1` ?
Reply: class 0

Query: Then CN(C)/N=C1/CCCCC1C(O)(c1ccccc1)c1ccccc1 (stereo not given) ?
Reply: class 0

Query: Then `COc1ccc2oc3cc(NCCN(C)C)ccc3c(=O)c2c1` ?
Reply: class 0

Query: Then `CN/C=C(/OCc1ccccc1)c1ccc(O)c(O)c1` ?
Reply: class 0

Query: Then O=C(Nc1nc(=S)[nH][nH]1)C(=O)C1C(=O)Nc2ccccc2S1=O (stereo not given) ?
Reply: class 0

Query: Then `CCc1cc2c(O)c(c1)Cc1cc(CC)cc(c1O)Cc1cc(CC)cc(c1O)Cc1cc(CC)cc(c1O)Cc1cc(CC)cc(c1O)Cc1cc(CC)cc(c1O)Cc1cc(CC)cc(c1O)C2` ?
Reply: class 0

Query: Then `Cc1ccc(Cl)cc1NC(=O)Oc1ccc(Cl)cc1C` ?
Reply: class 0

Query: Then `Cc1c(C)c2cc3ccc(Cl)cc3nc2c2ccccc12` ?
Reply: class 0

Query: Then `COc1ccc(NC(=O)Oc2ccccc2C(N)=O)c(Cl)c1` ?
Reply: class 0

Query: Then `CCN1C(=O)C(=O)C(CC)(CC)C1=O` ?
Reply: class 0

Query: Then `CN(C)c1ncnc2c1cnn2-c1ccccc1` ?
Reply: class 0

Query: Then `CC(C)(C)c1ccc2c(c1)CNCCNCCNCc1cc(C(C)(C)C)ccc1OCC1(CO2)COc2ccc(C(C)(C)C)cc2CNCCNCCNCc2cc(C(C)(C)C)ccc2OC1` ?
Reply: class 1

Query: Then `CCCCCCCCCc1ccc(COCCCC)cc1` ?
Reply: class 0

Query: Then `CC(C)(C)c1ccc(N)cc1` ?
Reply: class 0

Query: Then `Cc1ccc2nc3c(C)cc(=O)cc-3sc2c1` ?
Reply: class 0
